Test system: Leukemia
experiment_description: cells
Assay type: cell-based
run_conditions: Homo sapiens, 48 h, read-out: TGI Leukemia
Counter-ions that a name gives are not always drawn.
Where IC (TGI) equals or exceeds 50 µM, the correct label is Met; where it does not, the label is Not met.

COc1nc2sccn2c1C=C1C(=O)Nc2ccc(F)cc21    Met
COc1ccc2c(c1)C(=Cc1c(OC)nc3sccn13)C(=O)N2C    Not met
COc1ccc2c(c1)/C(=C\c1c(-c3ccccn3)nc3sccn13)C(=O)N2    Not met
Cc1ccc(-c2nc3sc(C)cn3c2/C=C2/C(=O)Nc3cc(C)c(O)cc32)cc1    Met

Shift focus to the following entry.
Ask | Reported IC (TGI) at or above 50 µM? CC[C@]1(O)C[C@H]2CN(CCc3c([nH]c4ccccc34)[C@@](C(=O)OC)(c3cc4c(cc3OC)N(C=O)[C@H]3[C@@](O)(C(=O)OC)[C@H](OC(C)=O)[C@]5(CC)C=CCN6CC[C@]43[C@@H]65)C2)C1 [Vincristine sulfate, reference compound]
Reply | Not met

* * *

Form field: IC (TGI) (one value per entry).
System: full NCI 60 cell panel
experiment_description: NCI 60 five-concentration screen, mean graph midpoint of all cell lines
Format: cell-based
run_conditions: Homo sapiens, 48 h, read-out: TGI MG-MID
Hey, just the number and the unit after it is fine.

Cc1ccc(-c2nc3sc(C)cn3c2/C=C2/C(=O)N(C)c3ccccc32)cc1    83.2 µM
O=C1Nc2cc(Cl)ccc2C1=Cc1c(-c2ccccn2)nc2sccn12    14.1 µM
Cc1cn2c(/C=C3/C(=O)Nc4c3ccc3ccccc43)c(C)nc2s1    19.9 µM
COc1nc2sccn2c1/C=C1/C(=O)Nc2cccc(Cl)c21    57.5 µM
COc1ccc2c(c1)C(=Cc1c(OC)nc3sccn13)C(=O)N2C    34.7 µM
COc1ccc2c(c1)C(=Cc1c(OC)nc3sccn13)C(=O)N2    19.1 µM

Ask | Record request: IC (TGI) value, item Cc1nn2c(/C=C3/C(=O)Nc4ccc(F)cc43)c(C)nc2s1
Reply | 91.2 µM

Ask | Record request: IC (TGI) value, item COc1nc2sccn2c1/C=C1/C(=O)Nc2ccccc21
Reply | 22.9 µM

* * *

Form field: IC (TGI) (one value per entry).
Test system: full NCI 60 cell panel
experiment_description: NCI 60 five-concentration screen, mean graph midpoint of all cell lines
Assay type: cell-based
run_conditions: Homo sapiens, 48 h, read-out: TGI MG-MID
Counter-ions that a name gives are not always drawn.
Hey, just the number and the unit after it is fine.

Cc1ccc(-c2nc3sc(C)cn3c2/C=C2/C(=O)Nc3cc(C)c(O)cc32)cc1 [Compound 11]    83.2 µM
COc1cc(-c2nc3sc(C)cn3c2/C=C2/C(=O)Nc3ccccc32)c(Br)c(OC)c1OC [Compound 24]    77.6 µM
COc1ccc2c(c1)/C(=C\c1c(-c3ccccn3)nc3sccn13)C(=O)N2 [Compound 31]    3.39 µM

Ask | Record request: IC (TGI) value, item COc1nc2sccn2c1/C=C1/C(=O)N(C)c2ccccc21 [Compound 40]
Reply | 72.4 µM

Ask | Record request: IC (TGI) value, item COc1nc2sccn2c1C=C1C(=O)Nc2ccc(F)cc21 [Compound 37]
Reply | 52.5 µM

Ask | Record request: IC (TGI) value, item Cc1nn2c(/C=C3/C(=O)Nc4c3ccc3ccccc43)c(C)nc2s1 [Compound 9]
Reply | 8.51 µM

Ask | Record request: IC (TGI) value, item CC[C@]1(O)C[C@H]2CN(CCc3c([nH]c4ccccc34)[C@@](C(=O)OC)(c3cc4c(cc3OC)N(C=O)[C@H]3[C@@](O)(C(=O)OC)[C@H](OC(C)=O)[C@]5(CC)C=CCN6CC[C@]43[C@@H]65)C2)C1 [Vincristine sulfate, reference compound]
Reply | 10 µM
